# system: T1, 4H2518-bH
# T1 chain: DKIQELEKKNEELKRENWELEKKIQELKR
# protocolDetails: two-hybrid library CCNG1;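 also: natural log of median RNA to DNA barcode read ratio; higher means stronger binding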
valueKind: interaction score

(P) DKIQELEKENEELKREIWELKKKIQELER [4H2253-bH]
(Q) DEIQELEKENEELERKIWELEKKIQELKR [4H166-bH]
(R) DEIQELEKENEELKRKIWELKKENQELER [4H235-bH]
(S) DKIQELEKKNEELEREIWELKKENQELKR [4H2444-bH]
Q: Kindly provide a descending ordering of the above binders based on their interaction score. Field: ranking. Enter the labels in the order requested.
Ans: Q, S, P, R
(Q: 1.54, S: 0.571, P: 0.157, R: -0.135)
